pIC50: −log10 of the molar value.
The following molecules have recorded pIC50 on Vascular endothelial growth factor receptor 1 (Homo sapiens, UniProt P17948).
Sequence (P17948 whole entry): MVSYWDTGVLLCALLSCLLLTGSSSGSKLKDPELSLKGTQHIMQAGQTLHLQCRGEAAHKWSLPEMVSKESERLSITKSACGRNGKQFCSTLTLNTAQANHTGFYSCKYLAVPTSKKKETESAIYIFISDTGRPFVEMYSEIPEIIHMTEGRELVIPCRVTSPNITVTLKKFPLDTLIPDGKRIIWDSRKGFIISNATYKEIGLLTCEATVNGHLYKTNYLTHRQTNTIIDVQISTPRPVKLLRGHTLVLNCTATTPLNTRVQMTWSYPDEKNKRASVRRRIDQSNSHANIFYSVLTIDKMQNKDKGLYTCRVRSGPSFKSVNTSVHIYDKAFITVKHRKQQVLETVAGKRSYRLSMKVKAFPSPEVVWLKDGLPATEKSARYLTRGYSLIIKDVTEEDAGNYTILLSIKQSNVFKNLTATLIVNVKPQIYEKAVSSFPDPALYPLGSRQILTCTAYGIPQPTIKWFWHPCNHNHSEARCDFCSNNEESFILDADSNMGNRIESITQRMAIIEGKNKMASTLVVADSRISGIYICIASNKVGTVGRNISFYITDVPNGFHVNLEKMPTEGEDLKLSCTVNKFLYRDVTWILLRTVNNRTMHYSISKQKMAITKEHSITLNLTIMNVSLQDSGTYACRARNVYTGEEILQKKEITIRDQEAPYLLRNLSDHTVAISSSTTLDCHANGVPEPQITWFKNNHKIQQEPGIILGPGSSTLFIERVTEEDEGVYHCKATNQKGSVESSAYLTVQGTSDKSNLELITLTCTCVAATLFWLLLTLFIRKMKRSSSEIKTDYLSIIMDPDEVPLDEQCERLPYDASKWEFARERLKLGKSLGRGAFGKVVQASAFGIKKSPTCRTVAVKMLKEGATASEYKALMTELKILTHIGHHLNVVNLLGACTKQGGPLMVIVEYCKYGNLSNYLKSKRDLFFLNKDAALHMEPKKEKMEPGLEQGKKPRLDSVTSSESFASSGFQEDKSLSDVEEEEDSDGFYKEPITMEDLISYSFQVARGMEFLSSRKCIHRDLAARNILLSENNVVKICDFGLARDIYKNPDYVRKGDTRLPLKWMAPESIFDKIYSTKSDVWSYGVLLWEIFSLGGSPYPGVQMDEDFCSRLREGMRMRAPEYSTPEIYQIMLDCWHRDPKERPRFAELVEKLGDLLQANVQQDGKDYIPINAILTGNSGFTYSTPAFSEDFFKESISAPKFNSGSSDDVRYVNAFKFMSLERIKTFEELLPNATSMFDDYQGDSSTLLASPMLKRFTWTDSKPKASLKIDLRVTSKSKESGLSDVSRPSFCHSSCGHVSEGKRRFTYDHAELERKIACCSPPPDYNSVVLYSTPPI

# smi, pIC50
records = [
    ("COc1ccc(-c2ccc(NC(=O)Nc3cc(C)ccc3F)cc2)c2c(N)noc12", 7.62),
    ("COc1ccc(-c2ccc(NC(=O)Nc3cccc(C(F)(F)F)c3)cc2)c2c(N)noc12", 7.80),
]

====

experiment: AUC in mouse at 10 mg/kg, po; format: ADME, organism-based; design: dose 10 mg/kg, route oral; conditions: plasma

# smi, AUC, µM·h
rows = [
    ("Nc1noc2cccc(-c3ccc(NC(=O)Nc4ccc(F)c(C(F)(F)F)c4)cc3)c12", 33.1),
    ("COc1ccc(-c2ccc(NC(=O)Nc3cccc(C(F)(F)F)c3)cc2)c2c(N)noc12", 30.6),
    ("COc1ccc(-c2ccc(NC(=O)Nc3cccc(Br)c3)cc2)c2c(N)noc12", 13.8),
    ("COc1ccc(-c2ccc(NC(=O)Nc3cccc(Cl)c3)cc2)c2c(N)noc12", 25.8),
    ("COc1ccc(-c2ccc(NC(=O)Nc3cc(C)ccc3F)cc2)c2c(N)noc12", 8.5),
]
